# TGI listing for each entry below
System: KM12 colon
methodNotes: NCI tumour cell line growth inhibition, 48 h
Lab book: enter the figure in µM, no units written.

Examples from the recorded data:
Field TGI (entry `COc1ccc2c(c1)C(=O)c1c-2c(N2CCN(C(=O)CCNCCNCCN)CC2)nc2ccccc12` ) reads 62.2

Field TGI (entry `C1=CC=C2NCCc3cccc(c3)CCNC3=CC=CC=CC3=NCCCCCCN=C2C=C1` ) reads 47.3

Next:
Field TGI (entry `COC(=O)/C=C\C(C#N)(C#N)N=Cc1cccs1` ) reads 37.8

###

# TGI listing for each entry below
Tested on: HT29 colon
methodNotes: NCI tumour cell line growth inhibition, 48 h

Field TGI (entry `COC(=O)/C=C\C(C#N)(C#N)N=Cc1cccs1` ) reads 4.24 µM

Field TGI (entry `COc1ccc(-c2cc(=O)c3cc(C)c(C)c(C(=O)O)c3o2)cc1` ) reads > 100 µM

Field TGI (entry `CCn1c(SCC(=O)Nc2cc(C(F)(F)F)ccc2Cl)nc2ccccc2c1=O` ) reads > 100 µM

Field TGI (entry `Cc1cc2c(=O)c(C)n[nH]c2c(C#N)c1C` ) reads > 100 µM

Field TGI (entry `CC(C)C1=CC2=CC[C@@H]3[C@](C)(CCC[C@@]3(C)C(=O)O)[C@H]2CC1` ) reads 45.9 µM

Field TGI (entry `COc1ccc([Se][Se]c2ccc(OC)cc2OC)c(OC)c1` ) reads > 100 µM

For the next question, use this compound.
Field TGI (entry `O=C1CCCCN1` ) reads > 1120 µM
